Experiment: in vitro
Type: cell-based
Details: human, hi-hela cells
quantity-name: CC50 at 48 h (µM)
Answers are plain numbers, in µM.

>  <compound>
CCOC(=O)/C=C/[C@H](CCC(N)=O)NC(=O)C1CN(Cc2ccccc2)CCN1C(=O)[C@H](CC(C)C)NC(=O)OCc1ccccc1 (mixture of isomers) [Compound 28]

>  <unit-of-measurement>
µM

>  <CC50 at 48 h>
125

$$$$
>  <compound>
CCOC(=O)/C=C/[C@H](CCC(N)=O)NC(=O)[C@H](Cc1ccccc1)N(C)C(=O)OCc1ccccc1 [Compound 1]

>  <unit-of-measurement>
µM

>  <CC50 at 48 h>
251

$$$$

Turning now to a further compound:
Qu. Entry CCOC(=O)/C(C)=C/[C@H](CCC(N)=O)NC(=O)[C@H](Cc1ccc(C)cc1)N(C)C(=O)[C@@H](NC(=O)SC1CCCC1)C(C)(C)C [Compound 49] : reported CC50 at 48 h = ?
Ans. 71
